Each item that follows carries a reported fold-change in binding over parental HEK293 cells.
- ASSAYED_TARGET: T1, mouse TMEM106B (mouse, UniProt Q80X71 2-275)
- T1 construct: Full-length cDNA transiently transfected into HEK293 cells; also called muTMEM106B; murine TMEM106B
- PROCEDURE_SUMMARY: flow cytometry, HEK293 cells transiently transfected with murine TMEM106B
REPORTED_PROPERTY: fold-change in binding over parental HEK293 cells

BINDER: TM-62 (antibody, V domains shown, Purified from mouse hybridoma) VH: QVQLQQPGTELVRPGSSVKLSCKAAGYTFTRYWMHWVKQRPIQGLEWIGNIDPSDSETQYNPKFKDKATLTVDRSSSTAYMHLSSLTSEDSAVYYCARLTTLDYAMDYWGQGTSVTVSS VL: QIVLTQSPAIMSASPGEKVTISCSASSSVSYMYWYQQKAGSSPKPWIHRTSNLASGVPARFSGSGSGTSYSLTIRSMEAEDAATYYCQQYHSYPPTFGVGTKLELK
VALUE_REPORTED: 0.86 fold

BINDER: TM-54 (antibody, V domains shown, Purified from mouse hybridoma) VH: QVQMQQSGPVLVKPGASVTLSCKASGYTFTTYDLNWVKQRPGQGLEWIGWIYPRGGSTEYNEKFKGKATLTVDTSSSTAYMELHSLTSEDSAVYFCAKYSIYAMDYWGQGTSVTVSS VL: DVLMTQTPLSLPVSLGDQASISCRSSQSIVHGNGNTYLEWYLQKPGQSPKLLIYKVSNRFSGVPDRFSGSGSGTDFTLKISRVEAEDLGVYYCFQGSHVPWTFGGGTKLEMK
VALUE_REPORTED: 1.17 fold

BINDER: TM-85 (antibody, V domains shown, Purified from mouse hybridoma) VH: QVQLQQPGAELVRAGTSVKLSCKASGYTFIGYWMHWVKQRPGRGLEWIGRIDPYSGDTRYNEKFKNKATLTVDKPSSTAYMQLSSLTSEDSAVYYCARYGLGHAMDYWGQGTSVTVSS VL: DIAMSQSQKFMSTSVGDRVSVTCKASQNVGTNVAWYQQKPGQSPKALIYSASYRYSGVPDRFTGSGSGTDFTLTISNVQSEDLAEYFCQQYNSYPLTFGAGTKLEMK
VALUE_REPORTED: 0.19 fold

BINDER: TM-88 (antibody, V domains shown, Purified from mouse hybridoma) VH: EAQLQQSGPVLVKPGASVKMSCKTSGYTFTDYYINWVKQSHGKSLEWIGVINPYSGATYYTQKFKGKATLTVDKSSSTAYMELNSQTSEDSAVYYCARGGYDYGHWYFDVWGTGTTVTVSS VL: ETTVTQSPASLSMAIGEKVTIRCITSSDIDDHMNWYRQKPGEPPEFLISEGNALRPGVPSRFSSSGYGTDFIFTIENILSEDVADYYCLQSDNLPLTFGAGTKLELK
VALUE_REPORTED: 5.84 fold
